GI50 values for the compounds below.
tested on: K562; assay: NCI tumour cell line growth inhibition, 48 h
Active and inactive are the calls of the source. Cut-off read from the data, not from the text of the source: active = GI50 up to about 1.1 µM and inactive = higher.

Recorded results for 3 compounds are shown here.
# compound, GI50
rows = [
    ("CCOC(=O)C(C#N)(Cc1c[nH]c2ccccc12)NC(C)=O (stereo not given)", "> 100 µM (inactive)"),
    ("Nc1ncnc2c1ncn2CCCCC(=O)O", "> 100 µM (inactive)"),
    ("CCOP(=O)(OCC)/C(C#N)=C/c1cccn1N(C)C", "> 100 µM (inactive)"),
]

Entry O=C1OCc2nc3c(c(-c4ccccc4C(F)(F)F)c21)C(=O)OC3 ; GI50 = > 100 µM (inactive)

compound N#Cc1c(-c2ccc(Cl)cc2)cc(-c2ccc(Nc3ccnc4cc(C(F)(F)F)ccc34)cc2)nc1N , GI50 observed: 14.5 µM (inactive)

Kindly note the recorded GI50 for N#C/N=C1\NC(Cc2ccccc2)C(=O)N1CCc1c[nH]c2ccccc12 (stereo not given) , which is 23.9 µM (inactive)

In plain terms, CC[C@@H]1NC(C(=O)OC)Cc2c1[nH]c1ccccc21 (stereo not given in full) has a documented GI50 of > 100 µM (inactive)

For reference, reported GI50 for COc1ccc(NC(/C(C(=O)c2ccccc2)=C(\O)C(=O)/C=C(\O)c2ccccc2)c2ccc(OC)cc2)cc1 (stereo not given) stands at 44.3 µM (inactive)

For record C=C(C(=O)O[C@H]1C(=O)C2=C(C)CCC3C(=C)C(=O)O[C@@H]3C2[C@]1(C)O)C1CC[C@]2(C)CCCC(=C)[C@H]2C1 (stereo not given in full) the listed GI50 is 6.11 µM (inactive)

Looking up CC1(C)CC(=O)C(C(c2cccc(O)c2O)C2C(=O)CC(C)(C)CC2=O)C(=O)C1 , I found its GI50 recorded as 92.9 µM (inactive)

Looking up Cc1ccc(/N=N/C(=N/NC(=O)c2cc(Cl)ccc2C(=O)c2ccccc2)c2ccc(N(CCC#N)CCC#N)cc2C)cc1 , I see its GI50 listed as 17.4 µM (inactive)

The recorded GI50 for O=C1c2cc3c(cc2[C@@H]2NC4CCCC14O2)OCO3 (stereo not given in full) is > 100 µM (inactive)

For this compound ( CSc1cc(Cl)c(C)cc1S(=O)(=O)NC(=O)NNc1cccc(C(F)(F)F)n1 ), measured GI50 is > 100 µM (inactive)
